System: FD (familial dysautomonia) IKBKAP minigene, exon 20 inclusion, in HEK293T cells
ASSAY METHOD TEXT: Primary splicing assay (FD IKBKAP minigene, Firefly/Renilla luciferase reporter in HEK293T)
Type: cell-based, human
EXPERIMENTAL CONDITIONS: Homo sapiens, HEK-293T; max efficacy in Primary Assay; Firefly/Renilla ratio, kinetin and DMSO as positive and negative controls; 24 hours of treatment; read-out: Emax (%)
Mark TRUE for reported Emax of 30% or greater; mark FALSE for anything smaller.

Here are 8 compounds together with their reported answers.
• Clc1nc(NCc2cncs2)c2nc[nH]c2n1 [(378)] = TRUE
• CCNc1nc2c(NCc3ccco3)nc(Cl)nc2[nH]1 [(243)] = TRUE
• CSc1nc(NCc2nccs2)n2ncnc2n1 [(342)] = FALSE
• Cc1nc2c(NCc3ccco3)c(C(N)=O)cnc2[nH]1 [(171)] = TRUE
• Clc1nc(NCc2ccco2)c2ncsc2n1 [(253)] = TRUE
• FC(F)(F)c1ccccc1CNc1ncnc2[nH]cnc12 [(23)] = TRUE
• Clc1cccc(CNc2ncnc3[nH]cnc23)c1 [(415)] = FALSE
• COc1nc2c(NC(C)c3nccs3)nc(Cl)nc2[nH]1 (centres unmarked) [(370)] = TRUE

Input line: I'd appreciate it if you could say whether Clc1nc(NCc2ccco2)c2c(-c3ccccc3)c[nH]c2n1 [(86)] has Emax at least equal to 30%.
Output line: FALSE

Input line: // inclusive: Emax at least 30%? input: CNCc1cc2c(NCc3ccco3)nc(Cl)nc2[nH]1 [(181)]
Output line: TRUE

Input line: # check: Emax of Fc1nc(NCc2ccncc2)c2cc[nH]c2n1 [(380)] is greater than or equal to 30%
Output line: TRUE

Every entry's value here was drawn from patent US11702417B2.
